procedureSummary: Toxicity in Mus musculus ddY (mouse) assessed as mortality at 550 mg/kg, ip after 2 days
Format: organism-based
Design: dose 550 mg/kg, route intraperitoneal
statedConditions: in vivo
metricName: mortality at 48 h
Answer format reminder: number followed by unit.

Please look up its mortality at 48 h: O=C(O)CN1C(=O)CSC1=S [RHODANINE-3-ACETIC ACID] 0%

* * *

Test system: Brassica rapa subsp. oleifera
procedureSummary: Growth inhibition of Brassica rapa subsp. oleifera assessed as chlorophyll a level at 3 x 10^-4 M after 7 days
Type: functional
Parameters: scale not given: the % may be the effect or the level left
metricName: Activity (%)
Just the number please, in %, no unit attached.

Illustrative cases are given below, each with its answer.
[[record]]
smilesentry = "NN1C(=O)CSC1=S"
targetorsystem = "Brassica rapa subsp. oleifera"
valueunit = "%"
reportedresult = 7.76

[[record]]
smilesentry = "O=C(NN1C(=O)CSC1=S)c1ccccc1"
targetorsystem = "Brassica rapa subsp. oleifera"
valueunit = "%"
reportedresult = 6.53

[[record]]
smilesentry = "O=C(O)CN1C(=O)CSC1=S"
targetorsystem = "Brassica rapa subsp. oleifera"
valueunit = "%"
reportedresult = 10.17


Now look at this one.
Please look up its Activity: O=C1CSC(=S)N1 2.09
